biological target: T1, epidermal growth factor receptor (EGFR) (human, UniProt P00533 25-1210); assay: table column 'Binding antigen'; no assay given
T1 construct: whole, on cells; The cell assays use human tumour lines; also called hEGFR

binder	binding result
EEB10 PEG4-MMAF conjugate (designed binder, Iodoacetyl-PEG4-MMAF on cysteines; 4 MMAF after conjugation, Bivalent P155R8-G3 with ABDcon12) MLPAPKNLVVSRVTEDSARLSWTAPDAAFDSFQIYYSELLSYGEAIVLTVPGSERSYDLTGLCPGTEYTVSINGVKGGTRSWSLSAIFTTAPCPAPAPAPLPAPKNLVVSRVTEDSARLSWTAPDAAFDSFQIYYSELLSYGEAIVLTVPGSERSYDLTGLCPGTEYTVSINGVKGGTRSWSLSAIFTTAPCPAPAPAPTIDEWLLKEAKEKAIEELKKAGITSDYYFDLINKAKTVEGVNALKDEILKA	binds
EEB8 PEG4-MMAF conjugate (designed binder, Iodoacetyl-PEG4-MMAF on cysteine; 1 MMAF after conjugation) MLPAPKNLVVSRVTEDSARLSWTAPDAAFDSFQIYYSELLSYGEAIVLTVPGSERSYDLTGLCPGTEYTVSINGVKGGTRSWSLSAIFTTAPAPAPAPAPLPAPKNLVVSRVTEDSARLSWTAPDAAFDSFQIYYSELLSYGEAIVLTVPGSERSYDLTGLKPGTEYTVSINGVKGGTRSWSLSAIFTTAPAPAPAPAPTIDEWLLKEAKEKAIEELKKAGITSDYYFDLINKAKTVEGVNALKDEILKA	binds
EEB9 PEG4-MMAF conjugate (designed binder, Iodoacetyl-PEG4-MMAF on cysteines; 2 MMAF after conjugation, Bivalent P155R8-G3 with ABDcon12) MLPAPKNLVVSRVTEDSARLSWTAPDAAFDSFQIYYSELLSYGEAIVLTVPGSERSYDLTGLCPGTEYTVSINGVKGGTRSWSLSAIFTTAPAPAPAPAPLPAPKNLVVSRVTEDSARLSWTAPDAAFDSFQIYYSELLSYGEAIVLTVPGSERSYDLTGLCPGTEYTVSINGVKGGTRSWSLSAIFTTAPAPAPAPAPTIDEWLLKEAKEKAIEELKKAGITSDYYFDLINKAKTVEGVNALKDEILKA	binds
